The origin of these recorded values is paper PMC10786891.

Target: T1, EsCas13d, nuclease-dead (Eubacterium siraeum, UniProt B0MS50, R295A;H300A;R849A;H854A)
T1 sequence: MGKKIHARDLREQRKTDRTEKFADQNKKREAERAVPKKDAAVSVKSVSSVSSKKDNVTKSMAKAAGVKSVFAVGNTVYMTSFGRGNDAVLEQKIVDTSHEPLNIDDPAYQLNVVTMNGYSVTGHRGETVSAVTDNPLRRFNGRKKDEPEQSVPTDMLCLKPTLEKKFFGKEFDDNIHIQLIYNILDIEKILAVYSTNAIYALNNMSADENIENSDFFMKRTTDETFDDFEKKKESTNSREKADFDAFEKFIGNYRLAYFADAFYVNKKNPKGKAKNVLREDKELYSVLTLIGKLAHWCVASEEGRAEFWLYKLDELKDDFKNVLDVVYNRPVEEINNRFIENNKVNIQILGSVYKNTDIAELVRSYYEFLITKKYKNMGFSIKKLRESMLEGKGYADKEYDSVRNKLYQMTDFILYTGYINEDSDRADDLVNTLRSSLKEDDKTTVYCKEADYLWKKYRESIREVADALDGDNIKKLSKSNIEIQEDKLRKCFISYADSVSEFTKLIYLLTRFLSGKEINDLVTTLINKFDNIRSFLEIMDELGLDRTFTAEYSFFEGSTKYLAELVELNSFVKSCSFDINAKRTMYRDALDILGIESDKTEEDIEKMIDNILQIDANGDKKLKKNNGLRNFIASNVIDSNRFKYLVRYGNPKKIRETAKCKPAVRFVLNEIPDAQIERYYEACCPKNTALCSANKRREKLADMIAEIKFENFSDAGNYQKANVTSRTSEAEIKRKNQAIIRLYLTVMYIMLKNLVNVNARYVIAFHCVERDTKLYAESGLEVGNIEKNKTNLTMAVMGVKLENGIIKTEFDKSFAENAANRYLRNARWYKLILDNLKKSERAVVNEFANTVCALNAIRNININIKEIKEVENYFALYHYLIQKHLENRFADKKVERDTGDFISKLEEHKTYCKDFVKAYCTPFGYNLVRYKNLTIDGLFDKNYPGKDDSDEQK
Test: crRNA (strand 1, pre-loaded); Mg2+; 40 mM Tris-HCl pH 7.5, 150 mM NaCl, 6 mM MgCl2, 1 mM DTT, 0.1% Tween-20, 0.2 mg/ml BSA; 25 C; 10 min per concentration, then washed
Details: tags: His6-TwinStrep-SUMO cleaved; N-terminal SNAP kept (SNAP-Surface 488); label: 3' end held by stalled T7 RNA polymerase
pKd: −log10 of the molar value.
// pKd lookup, one value per entry
value kind: pKd

binder="target 1 A9G,C22G (mixed) RNA 1: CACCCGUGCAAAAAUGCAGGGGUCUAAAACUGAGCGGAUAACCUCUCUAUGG RNA 2: GGGAAUGGAUCCACAUCUACGAAUUCGUAGCAUAGAGAGGUUGUCCGCUCACCGAGAUCGGAAGAGCACACGU" value_kind=pKd readout_number=7.24
binder="target 1 C2G,U8A (mixed) RNA 1: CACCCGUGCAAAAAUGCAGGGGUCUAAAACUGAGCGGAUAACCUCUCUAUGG RNA 2: GGGAAUGGAUCCACAUCUACGAAUUCGUACCAUAGAGAGGUUAACCGCUGACCGAGAUCGGAAGAGCACACGU" value_kind=pKd readout_number=7.87
binder="target 1 MT 5'PFS CUA 3'PFS UUG (mixed) RNA 1: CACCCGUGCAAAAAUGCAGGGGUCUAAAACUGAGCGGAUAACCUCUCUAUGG RNA 2: GGGAAUGGAUCCACAUCUACGAAUUCCUACCAUAGAGAGGUUAUCCGCUCAUUGAGAUCGGAAGAGCACACGU" value_kind=pKd readout_number=8.24
binder="target 1 insG 3' of 9,insA 3' of 5 (mixed) RNA 1: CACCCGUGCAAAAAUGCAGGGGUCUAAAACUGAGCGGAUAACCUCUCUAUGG RNA 2: GGGAAUGGAUCCACAUCUACGAAUUCGUACCAUAGAGAGGUUAGUCCGACUCACCGAGAUCGGAAGAGCACACGU" value_kind=pKd readout_number=7.99
binder="target 1 U3G,U19A (mixed) RNA 1: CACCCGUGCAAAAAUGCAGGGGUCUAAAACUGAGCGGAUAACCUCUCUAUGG RNA 2: GGGAAUGGAUCCACAUCUACGAAUUCGUACCAAAGAGAGGUUAUCCGCGCACCGAGAUCGGAAGAGCACACGU" value_kind=pKd readout_number=7.35
binder="target 1 MT 5'PFS CUG 3'PFS CAC (mixed) RNA 1: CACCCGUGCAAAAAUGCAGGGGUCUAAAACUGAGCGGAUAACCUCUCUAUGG RNA 2: GGGAAUGGAUCCACAUCUACGAAUUCCUGCCAUAGAGAGGUUAUCCGCUCACACAGAUCGGAAGAGCACACGU" value_kind=pKd readout_number=8.28
binder="target 1 insC 3' of 14,insG 3' of 10 (mixed) RNA 1: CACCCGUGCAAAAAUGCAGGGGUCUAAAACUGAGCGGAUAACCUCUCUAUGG RNA 2: GGGAAUGGAUCCACAUCUACGAAUUCGUACCAUAGAGACGGUUGAUCCGCUCACCGAGAUCGGAAGAGCACACGU" value_kind=pKd readout_number=7.37
binder="target 2 MT 5'PFS GAU 3'PFS CGC (mixed) RNA 1: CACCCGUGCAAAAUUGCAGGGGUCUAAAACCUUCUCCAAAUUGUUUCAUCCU RNA 2: GGGAAUGGAUCCACAUCUACGAAUUCGAUAGGAUGAAACAAUUUGGAGAAGCGCAGAUCGGAAGAGCACACGU" value_kind=pKd readout_number=7.90
binder="target 2 MT 5'PFS UAC 3'PFS UCC (mixed) RNA 1: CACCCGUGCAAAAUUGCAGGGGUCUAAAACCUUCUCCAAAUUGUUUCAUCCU RNA 2: GGGAAUGGAUCCACAUCUACGAAUUCUACAGGAUGAAACAAUUUGGAGAAGUCCAGAUCGGAAGAGCACACGU" value_kind=pKd readout_number=7.82
binder="target 1 A16C,G17U (mixed) RNA 1: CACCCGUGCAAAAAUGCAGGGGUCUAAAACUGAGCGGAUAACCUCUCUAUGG RNA 2: GGGAAUGGAUCCACAUCUACGAAUUCGUACCAUAUCGAGGUUAUCCGCUCACCGAGAUCGGAAGAGCACACGU" value_kind=pKd readout_number=7.55
binder="target 1 insA 3' of 8,insG 3' of 7 (mixed) RNA 1: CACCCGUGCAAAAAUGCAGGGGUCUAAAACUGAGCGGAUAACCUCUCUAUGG RNA 2: GGGAAUGGAUCCACAUCUACGAAUUCGUACCAUAGAGAGGUUAUACGCGCUCACCGAGAUCGGAAGAGCACACGU" value_kind=pKd readout_number=7.88
binder="target 1 insA 3' of 21,insA 3' of 17 (mixed) RNA 1: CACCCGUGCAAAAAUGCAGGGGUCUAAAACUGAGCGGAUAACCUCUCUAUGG RNA 2: GGGAAUGGAUCCACAUCUACGAAUUCGUACCAAUAGAAGAGGUUAUCCGCUCACCGAGAUCGGAAGAGCACACGU" value_kind=pKd readout_number=7.39
binder="target 1 insG 3' of 18,insC 3' of 11 (mixed) RNA 1: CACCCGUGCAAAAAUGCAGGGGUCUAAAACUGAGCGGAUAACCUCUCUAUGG RNA 2: GGGAAUGGAUCCACAUCUACGAAUUCGUACCAUAGGAGAGGUCUAUCCGCUCACCGAGAUCGGAAGAGCACACGU" value_kind=pKd readout_number=7.00
